compounds and their reported pIC50
- target-desc: PI3Kδ (Homo sapiens)
- Construct: Full length p110 subunits of PI3k α, β and δ, N-terminally labeled with polyHis tag; polyHis (N)
- Sequence (O00329 whole entry): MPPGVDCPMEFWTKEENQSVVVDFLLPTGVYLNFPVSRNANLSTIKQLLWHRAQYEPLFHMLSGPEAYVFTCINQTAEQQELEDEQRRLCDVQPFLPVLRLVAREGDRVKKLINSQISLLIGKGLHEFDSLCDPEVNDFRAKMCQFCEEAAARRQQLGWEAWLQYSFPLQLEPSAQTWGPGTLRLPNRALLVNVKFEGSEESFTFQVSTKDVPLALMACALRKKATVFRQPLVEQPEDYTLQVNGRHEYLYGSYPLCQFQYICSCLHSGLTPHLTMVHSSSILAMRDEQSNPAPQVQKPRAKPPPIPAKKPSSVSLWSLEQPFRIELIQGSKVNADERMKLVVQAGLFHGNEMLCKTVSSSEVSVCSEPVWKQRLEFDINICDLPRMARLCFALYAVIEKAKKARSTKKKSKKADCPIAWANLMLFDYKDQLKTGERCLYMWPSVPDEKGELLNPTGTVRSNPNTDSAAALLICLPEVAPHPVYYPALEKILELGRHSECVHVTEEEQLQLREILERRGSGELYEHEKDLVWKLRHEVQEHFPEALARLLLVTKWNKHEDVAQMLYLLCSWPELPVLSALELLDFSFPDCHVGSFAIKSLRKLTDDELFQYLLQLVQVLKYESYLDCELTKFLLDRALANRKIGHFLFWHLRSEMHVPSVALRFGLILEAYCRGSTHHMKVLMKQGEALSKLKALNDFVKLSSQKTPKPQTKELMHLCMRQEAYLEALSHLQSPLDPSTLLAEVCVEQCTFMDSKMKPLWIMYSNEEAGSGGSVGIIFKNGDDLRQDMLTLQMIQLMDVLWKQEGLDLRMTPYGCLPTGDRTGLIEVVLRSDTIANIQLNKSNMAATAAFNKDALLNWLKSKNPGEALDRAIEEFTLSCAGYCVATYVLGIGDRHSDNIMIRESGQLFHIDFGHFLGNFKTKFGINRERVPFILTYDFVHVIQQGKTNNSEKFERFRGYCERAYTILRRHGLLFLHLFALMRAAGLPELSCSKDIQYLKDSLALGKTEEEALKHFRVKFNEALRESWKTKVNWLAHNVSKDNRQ
- Sequence (P27986 whole entry partner): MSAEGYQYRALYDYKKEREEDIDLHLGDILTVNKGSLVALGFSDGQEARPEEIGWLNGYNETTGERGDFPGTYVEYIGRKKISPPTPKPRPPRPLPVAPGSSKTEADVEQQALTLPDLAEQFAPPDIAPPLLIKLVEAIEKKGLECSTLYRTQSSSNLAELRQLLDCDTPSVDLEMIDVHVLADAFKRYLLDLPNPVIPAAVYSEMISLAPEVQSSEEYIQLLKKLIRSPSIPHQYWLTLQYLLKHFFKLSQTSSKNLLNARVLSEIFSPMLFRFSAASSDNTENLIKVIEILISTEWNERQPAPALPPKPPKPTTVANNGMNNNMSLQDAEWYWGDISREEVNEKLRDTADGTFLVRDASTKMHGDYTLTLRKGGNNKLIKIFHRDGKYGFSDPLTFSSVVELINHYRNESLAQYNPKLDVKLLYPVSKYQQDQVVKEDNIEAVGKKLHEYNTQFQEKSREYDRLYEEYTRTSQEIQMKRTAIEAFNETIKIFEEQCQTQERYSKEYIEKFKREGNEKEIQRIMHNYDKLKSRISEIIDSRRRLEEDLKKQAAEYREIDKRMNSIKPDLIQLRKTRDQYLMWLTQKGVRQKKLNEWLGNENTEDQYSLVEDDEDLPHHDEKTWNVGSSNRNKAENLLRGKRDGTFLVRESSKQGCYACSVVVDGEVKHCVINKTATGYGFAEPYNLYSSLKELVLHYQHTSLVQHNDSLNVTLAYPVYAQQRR
- protocol-notes: In vitro enzyme assay of recombinant PI3K (residual ATP bioluminescence)
pIC50: −log10 of the molar value.
parameter: pIC50

> print(dat)
                                   compound  meas.value
1  Cc1cccc2nc(CNc3ncnc4[nH]cnc34)c(-c3ccccc3Cl)nc12        7.18
2  C[C@H](Nc1ncnc2[nH]cnc12)c1cc2ccc(F)cc2nc1-c1cccs1        8.10
3  Cc1cccc2cc(COc3ncnc4[nH]cnc34)c(-c3ccccc3Cl)nc12        7.60
4  Fc1cc2cc(CNc3ncnc4[nH]cnc34)c(-c3ccccc3Cl)nc2cc1F        6.26
5  CS(=O)(=O)c1ccccc1-c1nc2c(Cl)cccc2cc1CNc1ncnc2[nH]cnc12        6.65
6  Cc1cccc2cc(C(C)Nc3ncnc4[nH]cnc34)c(-c3ccccc3Cl)nc12 (centres unmarked)        7.51
7  Cc1cccc2nc(-c3ccccc3Cl)c(CNc3ncnc4[nH]cnc34)nc12        6.49
8  C=CCC(Oc1ncnc2[nH]ccc12)c1cc2cccc(C)c2nc1-c1ccccc1Cl (centres unmarked)        7.55

====

- target-desc: PI3Kδ (Homo sapiens)
- Construct: Full length p110 subunits of PI3k α, β and δ, N-terminally labeled with polyHis tag; polyHis (N)
- protocol-notes: In vitro enzyme assay of recombinant PI3K (residual ATP bioluminescence)
pIC50: −log10 of the molar value.
Binary classification by pIC50, with 7 as an inclusive lower bound for t; all other cases are f.

> print(dat)
                                    compound  assigned.class
 1  Fc1ccc2cc(CNc3ncnc4[nH]cnc34)c(-c3ccccc3Cl)nc2c1 [Example 36]               f
 2  COc1nc(NCc2cc3cccc(Cl)c3nc2-c2ccccc2Cl)c2cc[nH]c2n1 [Example 4]               f
 3  CC[C@H](Nc1ncnc2[nH]cnc12)c1cc2cccc(Cl)c2nc1-c1cccc(F)c1 [Example 42]               t
 4  C[C@@H](Nc1ncnc2[nH]cnc12)c1cc2cccc(Cl)c2nc1-c1cccc(F)c1               f
 5  Cc1ccccc1-c1nc2c(C)cccc2cc1COc1ncnc2c1CC(=O)N2 [Example 20]               f
 6  Cc1ccccc1-c1nc2c(C)cccc2cc1CSc1ncnc2[nH]cnc12 [Example 12]               f
 7  C[C@H](Nc1ncnc2[nH]cnc12)c1cc2cccc(Cl)c2nc1-c1cccc(F)c1               t
 8  COc1ccccc1-c1nc2c(C)cccc2cc1COc1ncnc2[nH]cnc12 [Example 7]               t
 9  Clc1nc(NCc2cc3cccc(Cl)c3nc2-c2ccccc2Cl)c2nc[nH]c2n1 [Example 3]               f
10  Cc1cccc2cc(COc3ncnc4[nH]cnc34)c(-c3ccccc3-c3ccccc3)nc12 [Example 8]               t
11  COc1cccc(F)c1-c1nc2c(C)cccc2cc1CNc1ncnc2[nH]cnc12 [Example 17]               f

====

- target-desc: PI3Kδ (Homo sapiens)
- Construct: Full length p110 subunits of PI3k α, β and δ, N-terminally labeled with polyHis tag; polyHis (N)
- protocol-notes: In vitro enzyme assay of recombinant PI3K (residual ATP bioluminescence)
parameter: IC50

> print(dat)
                         compound.structure  meas.value
1  Fc1cccc(-c2nc3c(Cl)cccc3cc2CNc2ncnc3[nH]cnc23)c1       74 nM
2  Cc1cccc2cc(COc3ncnc4[nH]ccc34)c(-c3ccccc3)nc12       68 nM
3  Cc1ccccc1-c1nc2c(C)cccc2cc1CNc1nc(N)nc2[nH]cnc12       82 nM
4  Cc1cccc2cc(CNc3ncnc4[nH]cnc34)c(-c3ccccc3C(F)(F)F)nc12       91 nM
5  Clc1ccccc1-c1nc2c(Cl)cccc2cc1CNc1ncnc2[nH]cnc12       68 nM
6  Fc1cc(F)cc(-c2nc3c(Cl)cccc3cc2CNc2ncnc3[nH]cnc23)c1       76 nM

All values here come from patent US8586739B2.
